B1: Homeobox protein cut-like 2, residues 895 to 963; numbered along this chain, O14529 (parent)
chain: EVDTLELTRQVKEKLAKNGICQRIFGEKVLGLSQGSVSDMLSRPKPWSKLTQKGREPFIRMQLWLSDQL

Variants of: B1
MEASUREMENT DESCRIPTION: abundance fitness (aPCA) (normalised: wild type 0, dead -1); higher = more abundant; growth selection in yeast, the domain comes from the species named
MEASUREMENT SETUP: Homo sapiens
# abundance fitness >= -0.2 gives class 1, anything below gives class 0

These solved cases illustrate the format of a correct answer.
EVDTLERTRQVKEKLAKNGICQRIFGEKVLGLSQGSVSDMLSRPKPWSKLTQKGREPFIRMQLWLSDQL | class 1
EVDTLELTRQVKEKLAKNGICQRIFGEKVLGLSQGSVSDMLSRPKPRSKLTQKGREPFIRMQLWLSDQL | class 0
EVDTLELTLQVKEKLAKNGICQRIFGEKVLGLSQGSVSDMLSRPKPWSKLTQKGREPFIRMQLWLSDQL | class 1
EVDTLELTRQVKEKLAKNGICQRIFGEKVLGLSQGSVSDMLSRPKPWSKLTQKGREPFIRMQLWLSDWL | class 1
EVDTLELDRQVKEKLAKNGICQRIFGEKVLGLSQGSVSDMLSRPKPWSKLTQKGREPFIRMQLWLSDQL | class 0

Kindly review the next variant as well.
Inquiry: Check the entry EVDTLELTRQVKEKLAKNGICQRIFGEKVLGLSQGSTSDMLSRPKPWSKLTQKGREPFIRMQLWLSDQL : does abundance fitness equal or exceed -0.2?
Reply text: class 1
